Measured values drawn from patent US20230227466A1 for this set.

- targetUnderTest: KRas G12D mutant (Homo sapiens, UniProt P01116, G12D)
- Construct: made in house
- assayInfo: Ras GTP binding domain inhibition assay (labeled-GTP competition, cell-free)
- experimentalContext: with SOS, read-out: KRas G12D mutant + SOS: % inh.
outcomeMeasure: inhibition at 20 µM

> print(dat)
                                    compound                           targetundertest  measuredvalue
 1  COc1cccn2c(-c3nc(O)c4scc(-c5ccccn5)c4n3)ncc12  KRas G12D mutant (Homo sapiens, UniProt P01116, G12D)      26 to 50%
 2  CO[C@H]1CN(c2nc(-c3nccn3C)nc3sc(-c4ccn(C(C)C)n4)c(C)c23)C[C@H]1OC  KRas G12D mutant (Homo sapiens, UniProt P01116, G12D)     76 to 100%
 3  CO[C@H]1CC[C@@H](Nc2nc(C(N)=O)nc3sccc23)C1 (racemic)  KRas G12D mutant (Homo sapiens, UniProt P01116, G12D)             0%
 4  CO[C@H]1C[C@H](CNc2nc(-c3nccn3C)nc3sc(-c4ccn(C(C)C)n4)c(C)c23)C1  KRas G12D mutant (Homo sapiens, UniProt P01116, G12D)      51 to 75%
 5  Cc1c(-c2ccn(C(C)C)n2)sc2nc(-c3nccn3C)nc(NC3CCOC3)c12 (racemic)  KRas G12D mutant (Homo sapiens, UniProt P01116, G12D)     76 to 100%
 6  Cc1c(-c2ccn(C(C)C)n2)sc2nc(-c3nccn3C)nc(NCCc3nnn[nH]3)c12  KRas G12D mutant (Homo sapiens, UniProt P01116, G12D)     76 to 100%
 7  COC1CCN(c2nc(-c3nccn3C)nc3sc(-c4ccn(C(C)C)n4)c(C)c23)C1 (racemic)  KRas G12D mutant (Homo sapiens, UniProt P01116, G12D)     76 to 100%
 8  CO[C@H]1CCCN(c2nc(-c3nccn3C)nc3sc(-c4ccn(C(C)C)n4)c(C)c23)C1  KRas G12D mutant (Homo sapiens, UniProt P01116, G12D)      26 to 50%
 9    COc1nc(-c2nccn2C)nc2c(-c3ncccc3F)csc12  KRas G12D mutant (Homo sapiens, UniProt P01116, G12D)     76 to 100%
10  COCC1COCCN1c1nc(-c2nccn2C)nc2sc(-c3ccn(C(C)C)n3)c(C)c12 (racemic)  KRas G12D mutant (Homo sapiens, UniProt P01116, G12D)      26 to 50%
11  CO[C@H]1C[C@@H](Nc2nc(-c3nccn3C)nc3sc(-c4ccn(C(C)C)n4)c(C)c23)C[C@H]1OC  KRas G12D mutant (Homo sapiens, UniProt P01116, G12D)      51 to 75%
12  COC[C@@H]1CC[C@@H]1CNc1nc(-c2nccn2C)nc2sc(-c3ccn(C(C)C)n3)c(C)c12 (racemic)  KRas G12D mutant (Homo sapiens, UniProt P01116, G12D)      51 to 75%
